test system: CHK1(p-Ser345); assay: Assay of CHK1(p-Ser345) in vitro: inhibition of CHK1 phosphorylation in HT29 cells after 4NQO, alpha screen; assay type: cell-based; conditions: Homo sapiens, HT-29, 0.2 nM compound, read-out: % Inhibition of CHKI phosphorylation
Description: […]
Where inhibition at 0.0002 µM equals or exceeds 5%, the correct label is true (1); where it does not, the label is false (0).

Example entries begin here.
>>> class_assignment("Cn1nccc1-c1cc(N2CC3CCC(C2)O3)nc2c(-c3ccn[nH]3)ncc(F)c12")
"true (1)"
>>> class_assignment("C[C@@H]1COCCN1c1cc(N2CCC3(CNC3)C2)c2c(F)cnc(-c3ccn[nH]3)c2n1")
"true (1)"
>>> class_assignment("CC(C)Oc1cc(N2CCOC[C@H]2C)nc2c(-c3ccn[nH]3)ncc(F)c12")
"false (0)"
>>> class_assignment("Cc1cc(-c2cc(N3CCOC[C@H]3C)nc3c(-c4ccn[nH]4)ncc(F)c23)n(C)n1")
"true (1)"
>>> class_assignment("Cc1cnccc1-c1cc(N2CCOC[C@H]2C)nc2c(-c3ccn[nH]3)ncc(F)c12")
"true (1)"

Asked: Form field: inhibition at 0.0002 µM at least 5%? Entry: C[C@@H]1COCCN1c1cc(-c2ccnn2C)c2c(F)cnc(-c3ccn[nH]3)c2n1
Given back: true (1)

Asked: Does the reported inhibition at 0.0002 µM for C[C@@H]1COCCN1c1cc(-c2ccnc3[nH]ccc23)c2c(F)cnc(-c3ccn[nH]3)c2n1 fall at or above the 5% mark?
Given back: true (1)

Asked: Evaluate C[C@@H]1COCCN1c1cc(C2(C#N)CCOCC2)c2c(F)cnc(-c3ccn[nH]3)c2n1 : inhibition at 0.0002 µM at minimum 5%?
Given back: false (0)
